experiment-summary: Chemical stability of compound at pH 4.6 assessed as residual rate measured after 2 days
Type: physicochemical
assay-context: buffer, time 2 day, read-out: Stability
measured-endpoint: remaining at 48 h (%)
Give the quantity in %, number only.

Prompt line: // Input: C[N+](C)(C)CCC(=O)Oc1ccc2[nH]c3c(c2c1)CCN1C(=O)c2cc(F)cc(F)c2N(c2cccc(F)c2)C31.[I-] (stereo unspecified) . Output its remaining at 48 h only.
Response line: 63.1

###

System: Huh-7
experiment-summary: Antiproliferative activity against human Huh-7 cells assessed as inhibition of cell proliferation incubated for 72 hrs by MTT assay
Format: functional, cell-based
assay-context: Huh-7, 72 h
IC50 values for the molecules below.

These solved cases illustrate the format of a correct answer.
Prompt line: // Input: O=C1c2cc(F)cc(F)c2N(c2cccc(F)c2)C2c3[nH]c4ccc(OCCCN5CCCC5)cc4c3CCN12 (stereo not drawn) . Output its IC50 only.
Response line: > 1.62 µM

Prompt line: // Input: O=C1c2cc(F)cc(F)c2N(c2cccc(F)c2)C2c3[nH]c4ccc(OCCCN5CCOCC5)cc4c3CCN12 (stereo not drawn) . Output its IC50 only.
Response line: > 1.62 µM

Please look at the following molecule next.
Prompt line: // Input: O=C1c2cc(F)cc(F)c2N(c2cccc(F)c2)C2c3[nH]c4ccc(OCCN5CCOCC5)cc4c3CCN12 (stereo not drawn) . Output its IC50 only.
Response line: > 1.62 µM
